Target: T1, VEGFR-1-Fc (human, UniProt P17948 27-331)
T1 construct: domain: first three Ig domains; expressed in Drosophila S2 cells, purified on Protein A sepharose; also called VEGFR-1-Fc fusion protein; not shown: Fc fragment from the Signal-pIgPlus vector
T1 sequence (P17948 27-331): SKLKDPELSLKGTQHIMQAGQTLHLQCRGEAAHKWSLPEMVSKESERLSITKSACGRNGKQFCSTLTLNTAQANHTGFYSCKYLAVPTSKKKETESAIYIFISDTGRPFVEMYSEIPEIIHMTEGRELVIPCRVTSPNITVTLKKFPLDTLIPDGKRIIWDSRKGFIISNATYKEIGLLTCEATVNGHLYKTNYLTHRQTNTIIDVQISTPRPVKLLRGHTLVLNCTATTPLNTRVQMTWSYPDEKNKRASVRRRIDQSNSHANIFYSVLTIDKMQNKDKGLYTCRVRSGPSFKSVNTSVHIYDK
Experiment: receptor-Fc IP

BINDER | binding result
82-9 (ligand) AHYNTEILKFMDVYQRSYCHPIETLVDIFQEFGVATNTFFKPPCVSVYRCGGCCNDEGLECVPTEESNITMQIMRITVPLSQGPKPVTISFLQHNKCECRPKKD | binds
82-7 (ligand) AHYNTEILKFMDVYQRSYCHPIETLVDIFQEFGVATNTFFKPPCVSVYRCGGCCNSEGLQCVPTEESNITMQIMRIKPHQGQHIGEMSFANHTSCRCMSKLD | binds
12-5 (ligand) GQNHHEVVKFMDVYQRSYCHPIETLVDIFQEFGVATNTFFKPPCVSVYRCGGCCNDEGLECVPTEESNITMQIMRIKPHQGQHIGEMSFANHTSCRCMSKLD | binds
